- tested-system: IL-17A/A (Homo sapiens)
- Construct: purchased Genscript Z03228
- Sequence (Q16552 24-155): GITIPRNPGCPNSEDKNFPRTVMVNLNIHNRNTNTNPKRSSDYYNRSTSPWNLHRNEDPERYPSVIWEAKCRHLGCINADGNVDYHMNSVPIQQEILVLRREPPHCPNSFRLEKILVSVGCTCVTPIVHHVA
- protocol: IL-17A/A HEK-Blue Cell Assay
- Format: cell-based
- details: IL-17A/A inhibition, HEK-Blue IL-17A reporter cell line, SEAP readout at A630, incubated for 20 hours
The compounds listed here are annotated with their IC50.
attribute-measured: IC50

* CCn1nccc1C(=O)N[C@H](c1nc2cc(C[C@H]3CCNC3=O)cc(F)c2[nH]1)C(C1CC1)C1CC1 | 100 to 1000 nM
* CCn1nccc1C(=O)N[C@H](c1nc2ccc(C[C@H]3CCCNC3=O)cc2[nH]1)C1CCC(F)(F)CC1 | > 1000 nM
* CCn1nccc1C(=O)N[C@H](c1nc2ccc(CC3(C)CCNC3=O)cc2[nH]1)C(C1CC1)C1CC1 (stereo partly shown) [Compound 20] | 100 to 1000 nM
* CCn1nccc1C(=O)N[C@H](c1nc2cc(CC3CCNC3=O)ccc2[nH]1)C(C1CC1)C1CC1 (stereo partly shown) | 100 to 1000 nM
* CCn1nccc1C(=O)N[C@H](c1nc2ccc(CC3C(=O)NC4CC43)cc2[nH]1)C(C1CC1)C1CC1 (stereo partly shown) | 100 to 1000 nM
* CC[C@@H](c1ccc(F)cc1)[C@H](NC(=O)c1ccnn1CC)c1nc2ccc(C[C@H]3CCNC3=O)cc2[nH]1 | > 1000 nM
* CCn1nccc1C(=O)N[C@H](c1nc2cc(C[C@H]3C[C@@H](C(F)(F)F)NC3=O)cc(F)c2[nH]1)C(C1CC1)C1CC1 | < 100 nM
